Data provenance is the supplement of paper PMC7877785.

Assay: self-splicing fitness, log relative to wild type (ln ratio); higher = more splicing; Tetrahymena group I intron in knt gene, E. coli kanamycin selection, DiMSum; sequences stand for … in CUCUCU…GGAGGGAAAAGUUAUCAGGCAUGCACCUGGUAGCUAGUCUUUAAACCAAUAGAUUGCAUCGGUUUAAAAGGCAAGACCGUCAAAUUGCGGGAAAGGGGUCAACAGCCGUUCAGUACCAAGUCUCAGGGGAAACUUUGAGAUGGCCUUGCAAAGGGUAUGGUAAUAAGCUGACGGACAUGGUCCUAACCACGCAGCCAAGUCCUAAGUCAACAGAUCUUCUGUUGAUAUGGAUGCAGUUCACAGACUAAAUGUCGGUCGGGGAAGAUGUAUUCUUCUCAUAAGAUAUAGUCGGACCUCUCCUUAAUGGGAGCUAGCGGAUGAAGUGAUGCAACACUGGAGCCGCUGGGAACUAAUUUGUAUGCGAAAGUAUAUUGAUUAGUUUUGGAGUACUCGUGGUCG;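 also: selection with 25 µg/mL kanamycin versus none on LB agar overnight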
Conditions: 30 °C
Quick reference for self-splicing fitness (ln) among some sequences

Solved cases below.
construct_sequence | measured_result
CGACAGCAAUAUUACGGGAA | -3.44
GCGCAGCAAUAUUACGGGUC | -2.71
AGCUAGCAAUAUUACGGAGA | -2.24
UUAAAGCAAUAUUACGUUAU | -2.14

Data request, read-out self-splicing fitness (ln), for ACAUAGCAAUAUUACGACGG -1

What about this sequence? CGGCAGCAAUAUUACGCACA -0.39

Try the sequence UCGGAGCAAUAUUACGCUGG -3.78

And then GCCCAGCAAUAUUACGUCUA , what is it? -1.37

Also, GACUAGCAAUAUUACGGGGC please. -4.11

Further, for GUGCAGCAAUAUUACGAUGA ? -0.903

---

Test: self-splicing fitness, log relative to wild type (ln ratio); higher = more splicing; Tetrahymena group I intron in knt gene, E. coli kanamycin selection, DiMSum; sequences stand for … in CUCUCU…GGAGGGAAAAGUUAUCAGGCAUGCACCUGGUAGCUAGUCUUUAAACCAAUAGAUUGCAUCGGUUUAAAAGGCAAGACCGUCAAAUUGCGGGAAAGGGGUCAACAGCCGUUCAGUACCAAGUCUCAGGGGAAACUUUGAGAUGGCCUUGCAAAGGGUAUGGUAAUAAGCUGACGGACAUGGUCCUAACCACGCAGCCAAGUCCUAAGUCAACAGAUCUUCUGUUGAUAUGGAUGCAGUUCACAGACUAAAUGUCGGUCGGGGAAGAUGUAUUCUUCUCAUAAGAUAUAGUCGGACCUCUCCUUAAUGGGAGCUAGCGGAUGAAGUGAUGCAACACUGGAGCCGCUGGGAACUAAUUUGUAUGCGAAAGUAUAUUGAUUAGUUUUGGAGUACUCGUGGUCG
Details: 37 °C
Recorded self-splicing fitness (ln) determines the group label, using zone 1: < -2; zone 2: ≥ -2 and < -1; zone 3: ≥ -1

Some solved cases for reference:
construct_sequence | label_value
CGGCAGCAAUAUUACGAACC | zone 3
AUGUAGCAAUAUUACGUUGC | zone 1
CGCCAGCAAUAUUACGCUCC | zone 2
CGCCAGCAAUAUUACGAUUU | zone 1
GUUCAGCAAUAUUACGAUUC | zone 3
AUUCAGCAAUAUUACGUGCU | zone 2

Quick check: band for UUUAAGCAAUAUUACGCUUU zone 1

Try the sequence AUUUAGCAAUAUUACGAGUA zone 3

Next entry: AUGCAGCAAUAUUACGUGGG zone 1

Same thing, different sequence: GUAUAGCAAUAUUACGUGUC zone 2

UAACAGCAAUAUUACGCGUG ? zone 3

Same read-out for GACUAGCAAUAUUACGGAAG ? zone 1

Next: ACAAAGCAAUAUUACGGAGG zone 1

Try this sequence too: GCCAAGCAAUAUUACGUCCA zone 3

Same question for ACCGAGCAAUAUUACGCUGC please. zone 1

Field entry: GAGAAGCAAUAUUACGCUAA zone 3

Then what about the sequence UCACAGCAAUAUUACGUUGG ? zone 1
